Assay method text: Metabolic stability in human liver microsomes assessed as compound remaining after 30 mins
Type: ADME, Microsome
Condition set: read-out: Stability
Quantity: remaining at 0.5 h (%)
All answers are understood in %, so give the number only.

Solved cases (2 shown):
# Smiles record, remaining at 0.5 h / %
rows = [
    ("Cc1cc(NCc2cc3cc(Cl)ccc3[nH]c2=O)ncc1C#N", 99),
    ("COc1nc(N[C@@H](C)c2cc3cc(Cl)c(OC(C)C)cc3[nH]c2=O)ncc1C#N", 100),
]

// next entry
// query Given `COc1cc(NCc2cc3cc(Cl)ccc3[nH]c2=O)ccc1S(C)(=O)=O` , state its recorded remaining at 0.5 h.
// result 100

Recorded values, source ChEMBL document CHEMBL4359816.
